# System: Tov-21-G
# Experiment Description: Primary qHTS to identify gynecologic anti-cancer compounds using libraries of approved drugs and bioactive compounds (AID 1345084); further: nearly all actives have a fitted effect of over 55% in size
# Stated Conditions: Gynecologic cancer cell panel viability, ATPlite luminescence, 48 h; series mostly up to 57.5 µM
Inconclusive results are not listed. Activity calls are given as the source filed them. The call rests on the fitted dose curve; in most records, active means well fitted cell-killing curve with a large enough effect; inconclusive means small, poorly fitted or top-dose-only effect, or effect the other way; inactive means flat fitted curve, though single readings scatter.
Choose one outcome from this list and give only that: active, inactive

Completed entries (count: 3):
[[record]]
compound = "CC1CCC2C(C)(C)C(O)CCC2(C)C12Cc1c(O)cc3c(c1O2)CN(C(CCCN=C(N)N)C(=O)O)C3=O (stereo unspecified)"
cat = "inactive"

[[record]]
compound = "Cc1ccc(CCCO)c(NCc2ccc3nc(NCCCN4CCOCC4)n(Cc4nc(C)ccc4O)c3c2)c1"
cat = "inactive"

[[record]]
compound = "O=C(NCc1ccc(Oc2ccccc2)cc1)c1nc(-c2cc(Br)c(O)c(Br)c2)no1"
cat = "inactive"


INPUT: Returns: the outcome recorded for CC(=O)c1c(OCCN2CCCCC2)c(OCCC(C)c2ccc(F)cc2)c2oc(C)nc2c1C (stereo unspecified) in this assay.
OUTPUT: inactive

INPUT: Now the compound Cn1cc(-c2cnc3ccc4ccc(CS(=O)(=O)NCc5ccccn5)cc4c(=O)c3c2)cn1
OUTPUT: inactive

INPUT: Now the compound CCOP(=O)(Cc1ccc(C(=O)Nc2ccc(Br)cc2C#N)cc1)OCC
OUTPUT: inactive

INPUT: Now the compound Fc1ccccc1CNCc1ccc(-c2ccnc3[nH]ccc23)cc1
OUTPUT: inactive

INPUT: Now the compound COc1cc(O)c(C(=O)CCc2ccc(O)cc2)c(O[C@@H]2O[C@H](CO)[C@@H](O)[C@H](O)[C@H]2O)c1
OUTPUT: inactive

INPUT: Now the compound CCCCn1c(-c2ccccc2)nc(-c2ccccc2)c1CN(Cc1ccc2c(c1)OCO2)Cc1ccc2c(c1)OCO2
OUTPUT: inactive

INPUT: Now the compound COc1cc2nc(-c3cc(F)ccc3O)nc(N[C@@H]3CNC[C@H]3C(C)(C)O)c2cc1OC
OUTPUT: inactive

INPUT: Now the compound CC/C(=C(\c1ccc(O)cc1)c1ccc(OCCNC)cc1)c1ccccc1
OUTPUT: inactive

INPUT: Now the compound CC(C)(C)c1ccc(-c2nc3ccccc3[nH]2)cc1
OUTPUT: active

INPUT: Now the compound CC(C)N(CCCNC(=O)Nc1ccc(C(C)(C)C)cc1)C[C@H]1O[C@@H](n2cc(Br)c3c(N)ncnc32)[C@H](O)[C@@H]1O
OUTPUT: inactive

INPUT: Now the compound CC(C)COc1ccc(CNC(=O)N(Cc2ccc(F)cc2)C2CCN(C)CC2)cc1
OUTPUT: inactive

INPUT: Now the compound Cc1c(C(=O)NCCCO)cnn1-c1nc(-c2cccc(C(F)(F)F)c2)cs1
OUTPUT: inactive

INPUT: Now the compound COc1ccc(C2(CNC(=O)[C@](C)(Cc3c[nH]c4ccccc34)NC(=O)Nc3ccc([N+](=O)[O-])cc3)CCCCC2)nc1
OUTPUT: inactive
